# Measurement Notes: qHTS profiling of Chloroquine Analogs as inhibitors of Plasmodium falciparum (HB3) proliferation
# Measurement Context: P. falciparum HB3 proliferation; series mostly up to 28.7 µM
Calls of active or inactive are those of the source. Calls come from the whole dose curve.
The reply should name one outcome from active, inactive

Would you mind telling me which call this test gave CC1=CC(=O)c2ccccc2C1=O ?
active

Give the logged outcome of this assay for the following molecule: CCCCN(CCCC)CCC(O)c1cc2c(Cl)cc(Cl)cc2c2cc(C(F)(F)F)ccc12 (stereo not given)
active

Which result was noted for this molecule in the test: Clc1ccc(COC(Cn2ccnc2)c2ccc(Cl)cc2Cl)c(Cl)c1 (stereo not given)
inactive

For this molecule, state the assay outcome: CN([C@@H](Cc1ccc(OS(=O)(=O)c2cccc3cnccc23)cc1)C(=O)N1CCN(c2ccccc2)CC1)S(=O)(=O)c1cccc2cnccc12
inactive

Test call for this molecule, please: CN1CCN(CCCN2c3ccccc3Sc3ccc(S(=O)(=O)N(C)C)cc32)CC1
active

Data origin: PubChem BioAssay AID743327
